assay: self-splicing fitness, log relative to wild type (ln ratio); higher = more splicing; Tetrahymena group I intron in knt gene, E. coli kanamycin selection, DiMSum; sequences stand for … in CUCUCU…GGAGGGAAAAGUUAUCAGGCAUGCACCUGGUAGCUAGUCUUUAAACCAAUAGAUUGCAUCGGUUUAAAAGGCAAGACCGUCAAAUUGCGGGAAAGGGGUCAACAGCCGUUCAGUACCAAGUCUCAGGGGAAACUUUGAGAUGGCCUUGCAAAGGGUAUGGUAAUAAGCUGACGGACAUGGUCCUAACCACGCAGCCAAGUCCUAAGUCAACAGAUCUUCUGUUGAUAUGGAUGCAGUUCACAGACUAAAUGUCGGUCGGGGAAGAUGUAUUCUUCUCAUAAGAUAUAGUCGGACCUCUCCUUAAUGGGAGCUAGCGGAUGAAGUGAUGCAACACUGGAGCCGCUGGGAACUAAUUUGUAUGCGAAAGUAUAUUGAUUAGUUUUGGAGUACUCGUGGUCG; details: 30 °C;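 further: selection with 25 µg/mL kanamycin versus none on LB agar overnight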
MEASUREMENT_NAME: self-splicing fitness (ln)
One number for each entry.

Completed entries (count: 5):
INPUT_SEQUENCE: UGCCAGCAAUAUUACGCGUG
self-splicing fitness (ln): -1.71

INPUT_SEQUENCE: GUAAAGCAAUAUUACGGAUC
self-splicing fitness (ln): -0.198

INPUT_SEQUENCE: GAUAAGCAAUAUUACGAUUU
self-splicing fitness (ln): -0.385

INPUT_SEQUENCE: GAGCAGCAAUAUUACGUCUC
self-splicing fitness (ln): -2.48

INPUT_SEQUENCE: CUCGAGCAAUAUUACGUAGA
self-splicing fitness (ln): -3.34

For each entry beneath this line, provide reported self-splicing fitness (ln).
1. GAUUAGCAAUAUUACGAUUG
2. GACGAGCAAUAUUACGUGGA
3. UGUUAGCAAUAUUACGAAGU

Result:
1. -1.71
2. -4
3. -3.08

For each entry beneath this line, provide reported self-splicing fitness (ln).
1. GAACAGCAAUAUUACGCUUG
2. GCCUAGCAAUAUUACGAUUC
3. GCUAAGCAAUAUUACGCACC
4. AAUUAGCAAUAUUACGAGGU
5. GCACAGCAAUAUUACGCGUA
6. GCGGAGCAAUAUUACGCCCG
7. GGUGAGCAAUAUUACGUUGU

Result:
[-0.92, -0.921, -0.869, -3.26, -0.987, -1.19, -4.18]

For each entry beneath this line, provide reported self-splicing fitness (ln).
1. UAGAAGCAAUAUUACGCAUG
2. AAACAGCAAUAUUACGUGGA
3. CCCUAGCAAUAUUACGUUGG
4. GGUAAGCAAUAUUACGGAUU
5. AUGAAGCAAUAUUACGCCUU
6. CUCGAGCAAUAUUACGCGAA

Result:
1: -1.12; 2: -3.1; 3: -3.97; 4: -0.823; 5: -1.9; 6: -3.3

For each entry beneath this line, provide reported self-splicing fitness (ln).
1. ACGGAGCAAUAUUACGUGUA
2. GUGGAGCAAUAUUACGAUCU
3. CAAAAGCAAUAUUACGUGAC

Result:
1. -3.72
2. -2.68
3. -5

For each entry beneath this line, provide reported self-splicing fitness (ln).
1. GACCAGCAAUAUUACGACUG
2. AAAAAGCAAUAUUACGGCGU
3. CCCAAGCAAUAUUACGUUUC
4. CUCGAGCAAUAUUACGAACA
5. ACUGAGCAAUAUUACGCCUA
6. UUGCAGCAAUAUUACGGUAA

Result:
[-2.86, -0.321, -3.63, -1.56, -2.23, -0.988]

For each entry beneath this line, provide reported self-splicing fitness (ln).
1. AAGAAGCAAUAUUACGACUG
2. UAUUAGCAAUAUUACGCGAG
3. CCGGAGCAAUAUUACGACGU
4. GAGAAGCAAUAUUACGGGGA
5. GGUGAGCAAUAUUACGGUUU
6. GAACAGCAAUAUUACGCUCC
7. GAUCAGCAAUAUUACGAACC

Result:
[-0.231, -2.21, -0.341, -2.34, -2.12, -3.43, -0.755]

For each entry beneath this line, provide reported self-splicing fitness (ln).
1. UUCAAGCAAUAUUACGAUUU
2. GUUGAGCAAUAUUACGAUAU
3. GUCUAGCAAUAUUACGCUUU
4. AUGCAGCAAUAUUACGGUCC
5. GUAAAGCAAUAUUACGGCGG

Result:
-3.24
-2.32
-0.366
-1.85
-1.39

For each entry beneath this line, provide reported self-splicing fitness (ln).
1. CGACAGCAAUAUUACGGCUU
2. GCAGAGCAAUAUUACGAACU
3. GAUAAGCAAUAUUACGAUCU

Result:
-3.12
-0.968
0.509
